- assay comment: Solubility in water
- Format: physicochemical
- settings: water, 37 °C, water, thermodynamic from solid, water, 37° C.; read-out: water solubility (amount that can be dissolved)
- Description: Solubility in Water [table]
assay endpoint: solubility (µg/mL)

1. Cc1oncc1C(=O)Nc1ccc(C(F)(F)F)cc1 :: 38
